Assay target: human ERα (Homo sapiens, UniProt P03372)
Construct: amino acids M250-V595 of human ERα; His (N); Flag (C)
Sequence (P03372 250-595): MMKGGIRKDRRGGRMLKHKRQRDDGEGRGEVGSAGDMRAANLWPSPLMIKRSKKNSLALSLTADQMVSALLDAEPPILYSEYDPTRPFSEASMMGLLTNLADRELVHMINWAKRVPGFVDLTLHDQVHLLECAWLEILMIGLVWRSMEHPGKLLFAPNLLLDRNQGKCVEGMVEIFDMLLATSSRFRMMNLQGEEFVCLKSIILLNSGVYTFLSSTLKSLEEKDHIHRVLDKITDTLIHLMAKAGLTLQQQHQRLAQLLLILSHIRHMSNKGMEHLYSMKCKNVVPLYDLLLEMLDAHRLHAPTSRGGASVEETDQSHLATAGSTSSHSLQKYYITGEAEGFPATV
Assay summary: Radioligand binding competition with [3H]-17β-estradiol, ERα
Applied conditions: human ERα ligand binding domain extract, read-out: ER-α IC50
The threshold is 70 nM. Values of IC50 beneath it are tagged satisfied; values meeting or exceeding it are tagged not satisfied.

A selection of reference data follows.
[
  {
    "Compound": "Cc1c(-c2cccc(O)c2)sc(C#N)c1-c1ccc(O)cc1 [Example 22]",
    "Qualitative label": "not satisfied"
  },
  {
    "Compound": "Cc1c(-c2ccc(O)cc2)sc(C#N)c1-c1cccc(O)c1 [Example 17]",
    "Qualitative label": "not satisfied"
  },
  {
    "Compound": "CON=Cc1sc(-c2ccc(O)cc2C)c(C)c1-c1ccc(O)c(F)c1 [Example 23]",
    "Qualitative label": "not satisfied"
  }
]

Problem: # TODO verify IC50 < 70 nM strictly for this compound: Cc1c(-c2ccc(O)c(Cl)c2)sc(C=O)c1-c1ccc(O)cc1 [Example 13]
Result: not satisfied

Problem: # TODO verify IC50 < 70 nM strictly for this compound: Cc1c(-c2ccc(O)cc2)sc(C=O)c1-c1ccc(O)c(F)c1 [Example 5]
Result: satisfied

Problem: # TODO verify IC50 < 70 nM strictly for this compound: Cc1c(-c2ccc(O)cc2)sc(C=O)c1-c1ccc(O)c(Cl)c1 [Example 7]
Result: satisfied

Problem: # TODO verify IC50 < 70 nM strictly for this compound: Cc1c(-c2ccc(O)cc2)sc(C#N)c1-c1ccc(O)cc1 [Example 19]
Result: satisfied

Problem: # TODO verify IC50 < 70 nM strictly for this compound: Cc1c(-c2ccc(O)cc2)sc(C=O)c1-c1ccc(O)cc1 [Example 15]
Result: satisfied
